# target desc: Histone acetyltransferase KAT8 (Homo sapiens, UniProt Q9H7Z6)
# Sequence (Q9H7Z6 whole entry, the tested form may be a part): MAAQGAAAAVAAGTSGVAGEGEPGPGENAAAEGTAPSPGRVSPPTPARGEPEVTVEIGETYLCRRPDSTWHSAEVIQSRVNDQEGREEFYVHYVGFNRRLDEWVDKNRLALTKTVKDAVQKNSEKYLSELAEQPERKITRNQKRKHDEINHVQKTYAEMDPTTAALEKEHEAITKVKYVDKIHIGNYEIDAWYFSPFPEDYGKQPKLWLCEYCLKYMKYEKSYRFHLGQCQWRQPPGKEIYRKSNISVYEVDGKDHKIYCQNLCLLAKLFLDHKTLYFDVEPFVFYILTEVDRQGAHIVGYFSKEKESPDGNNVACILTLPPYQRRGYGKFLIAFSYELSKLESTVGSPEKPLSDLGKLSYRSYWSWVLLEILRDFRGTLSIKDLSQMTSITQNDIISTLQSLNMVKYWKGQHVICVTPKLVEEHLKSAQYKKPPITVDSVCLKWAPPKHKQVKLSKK
# assay overview: Inhibition of full length N-terminal GST-tagged human recombinant KAT8 (174 to 449 residues) using H4-derived peptide as substrate incubated for 60 mins in presence of AcCoA by TR-FRET assay
measure name: IC50

Find the recorded IC50 belonging to CN(C)c1ccc2cc(C(=O)NS(=O)(=O)c3ccccc3-c3ccccc3)oc2c1 and report it.
> 10 µM

---

# target desc: Histone acetyltransferase KAT5 (Homo sapiens, UniProt Q92993)
# Sequence (Q92993 whole entry): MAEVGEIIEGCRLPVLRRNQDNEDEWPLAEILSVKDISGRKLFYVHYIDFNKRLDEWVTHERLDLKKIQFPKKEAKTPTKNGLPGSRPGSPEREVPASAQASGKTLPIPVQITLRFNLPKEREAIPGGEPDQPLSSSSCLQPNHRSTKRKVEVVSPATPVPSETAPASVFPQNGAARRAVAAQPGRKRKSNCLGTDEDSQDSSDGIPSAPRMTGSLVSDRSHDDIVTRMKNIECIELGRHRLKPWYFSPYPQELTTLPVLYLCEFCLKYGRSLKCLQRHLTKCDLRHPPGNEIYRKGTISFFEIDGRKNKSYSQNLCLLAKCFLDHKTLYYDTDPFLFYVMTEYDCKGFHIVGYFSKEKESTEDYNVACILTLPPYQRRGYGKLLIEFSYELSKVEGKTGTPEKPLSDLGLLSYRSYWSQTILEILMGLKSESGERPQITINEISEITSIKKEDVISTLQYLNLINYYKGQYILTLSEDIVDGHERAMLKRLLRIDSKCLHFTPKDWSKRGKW
# assay overview: Inhibition of full length N-terminal GST-tagged human recombinant KAT5 expressed in Sf9 insect cells using H4-derived peptide as substrate incubated for 30 mins in presence of AcCoA by TR-FRET assay
measure name: IC50 (µM)
Please respond with the number in µM and leave the unit unwritten.

Query (molecule): CN(C)c1ccc2cc(C(=O)NS(=O)(=O)c3ccccc3-c3ccccc3)oc2c1 ; field requested: IC50
14.3

---

# assay overview: Metabolic stability in dog hepatocyte assessed as maximum bioavailability of the drug measured for 2 to 90 mins by LC-MS/MS analysis
# Assay type: ADME, Canis lupus familiaris
# study conditions: hepatocytes, time 2-90 min, read-out: Fmax
measure name: Fh (%)
Use % as the unit, but write only the number.

Quick check: Fh of CN(C)c1ccc2cc(C(=O)NS(=O)(=O)c3ccccc3-c3ccccc3)oc2c1 ?
53

---

# assay overview: Metabolic stability in human hepatocyte assessed as maximum bioavailability of the drug measured for 2 to 90 mins by LC-MS/MS analysis
# Format: ADME
# study conditions: hepatocytes, time 2-90 min, read-out: Fmax
measure name: Fh (%)
# output: bare number, implied unit %

# lookup: Fh of CN(C)c1ccc2cc(C(=O)NS(=O)(=O)c3ccccc3-c3ccccc3)oc2c1
25

---

# assay overview: Dissociation constant, pKa of compound
# Format: physicochemical
measure name: pKa
Please give only the number in your answer, with no unit.

State the recorded pKa for this entry: CCOc1cccc(-c2ccccc2)c1S(=O)(=O)NC(=O)c1cc2c(C)cc(OC)cc2o1
5.6

Please look up its pKa: COc1cc(C)c2cc(C(=O)NS(=O)(=O)c3ccc(C)cc3)oc2c1
3

Given COc1cc(C)c2cc(C(=O)NS(=O)(=O)c3ccc(-c4ccccc4)cc3)oc2c1 , state its recorded pKa.
5.8

What value of pKa has been reported for the following compound? COc1cc(C)c2cc(C(=O)NS(=O)(=O)c3ccccc3-c3ccccc3)oc2c1
4.3

pKa for COc1cc(C)c2cc(C(=O)NS(=O)(=O)c3ccccc3OC)oc2c1 ?
3.2

# query: pKa of entry CCOc1cccc(-c2cccc(Cl)c2)c1S(=O)(=O)NC(=O)c1cc2c(C)cc(OC)cc2o1
6

Suppose we examine the compound COc1cc(C)c2cc(C(=O)NS(=O)(=O)c3ccc(C)cc3-c3ccccc3)oc2c1 ; what pKa value has been reported?
4.7

Value lookup for pKa; key = COc1cc(C)c2cc(C(=O)NS(=O)(=O)c3ccc(Cl)cc3)oc2c1
2.9

Name the reported pKa value associated with the compound CCCOc1ccccc1S(=O)(=O)NC(=O)c1cc2c(C)cc(OC)cc2o1
4

---

# assay overview: Metabolic stability in mouse liver microsome assessed as maximum bioavailability of the drug measured for 2 to 60 mins by LC-MS/MS analysis
# Format: ADME
# study conditions: liver microsomes, time 2-60 min, read-out: Fmax
measure name: Fh (%)
Your answer should be a plain number; it is taken to be in %.

What Fh value was documented for this compound, CN(C)c1ccc2cc(C(=O)NS(=O)(=O)c3ccccc3-c3ccccc3)oc2c1 ?
29
